molecular target: T1, human PSMA expressed with an N-terminal hexahistidine tag (6h.hPSMA, R&D) (human, UniProt Q04609 44-750); experiment: SPR Biacore T-200, 37 C, antibody-capture (anti-human Fc), 6h.hPSMA as analyte
T1 construct: Bought soluble protein; also called soluble human PSMA; human PSMA protein
T1 sequence (Q04609 other isoform, or with tags, fused parts or gaps limits assumed): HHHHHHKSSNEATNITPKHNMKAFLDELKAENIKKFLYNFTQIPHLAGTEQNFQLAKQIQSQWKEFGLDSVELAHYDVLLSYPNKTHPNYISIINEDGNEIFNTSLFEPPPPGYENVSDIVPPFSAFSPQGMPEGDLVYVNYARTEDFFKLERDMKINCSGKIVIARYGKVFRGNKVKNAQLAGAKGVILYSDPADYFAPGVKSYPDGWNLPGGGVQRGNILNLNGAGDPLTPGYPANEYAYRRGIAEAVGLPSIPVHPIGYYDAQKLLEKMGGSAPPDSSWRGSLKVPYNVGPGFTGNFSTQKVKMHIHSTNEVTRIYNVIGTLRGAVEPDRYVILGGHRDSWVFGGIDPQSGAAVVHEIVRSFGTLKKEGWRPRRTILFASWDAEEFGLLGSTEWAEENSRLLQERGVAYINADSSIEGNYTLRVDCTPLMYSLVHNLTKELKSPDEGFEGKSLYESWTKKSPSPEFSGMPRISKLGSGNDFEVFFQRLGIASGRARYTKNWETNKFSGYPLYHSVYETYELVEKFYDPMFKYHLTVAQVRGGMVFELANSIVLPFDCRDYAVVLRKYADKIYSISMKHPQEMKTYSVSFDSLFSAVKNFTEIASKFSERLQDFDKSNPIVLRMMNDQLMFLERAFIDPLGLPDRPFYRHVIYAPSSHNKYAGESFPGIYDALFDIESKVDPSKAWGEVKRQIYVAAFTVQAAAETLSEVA
endpoint_label: kon (M⁻¹ s⁻¹)
Report the figure in M⁻¹ s⁻¹ without appending any unit label.

Example cases with answers are listed next.
{"binder": "H1H11804P2 (antibody, human IgG1, V domains shown, human IgG1) VH: QVQLVESGGGVVQPGRSLRLSCAASGFTFISYGMHWVRQAPGKGLEWVAVISYDGSNKYYADSVKGRFTISRDNSKNTLFLQMNSLRAEDTAVYYCAKNYDFWNGYVGYYGMDVWGQGTTVTVSS VL: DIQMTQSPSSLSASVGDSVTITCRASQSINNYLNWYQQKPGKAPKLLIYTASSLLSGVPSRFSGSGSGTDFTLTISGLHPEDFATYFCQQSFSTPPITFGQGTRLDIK", "kon (M⁻¹ s⁻¹)": 20300}
{"binder": "H1H11835P2 (antibody, human IgG1, V domains shown, human IgG1) VH: EVQLVESGGGLVQSGGSLRLSCEASGFTFSNYWMTWIRQGPGKGLEWVANIKPDGTENYYVDSVKGRFTISRDNARNSLYLQMTSLKAEDTAVYYCGRMIQFVINIWGQGTLVTVSS VL: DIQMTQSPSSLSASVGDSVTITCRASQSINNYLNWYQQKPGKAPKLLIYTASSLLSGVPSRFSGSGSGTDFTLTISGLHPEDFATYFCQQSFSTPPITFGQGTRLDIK", "kon (M⁻¹ s⁻¹)": 175000}

Task: Respond only with kon recorded for H1H11838P2 (antibody, human IgG1, V domains shown, human IgG1) VH: QVQLVESGGGVVQPGRSLRLSCAASGFTFSSYGMHWVRQAPGKGLEWVAFMSYDGSNKFYSDSVKGRFTISRDNSRKMLFLQMNNLRAEDTAVYYCARDQYYDFLTDHGVFDYWGQGTLVTVSS VL: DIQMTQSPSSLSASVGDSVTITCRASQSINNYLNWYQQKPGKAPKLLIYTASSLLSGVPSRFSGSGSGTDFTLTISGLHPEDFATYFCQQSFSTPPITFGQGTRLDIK
Result: 237000

Task: Look up and state reported kon for H1H11810P2 (antibody, human IgG1, V domains shown, human IgG1; also called PSMA-VH-11810 (its HCVR)) VH: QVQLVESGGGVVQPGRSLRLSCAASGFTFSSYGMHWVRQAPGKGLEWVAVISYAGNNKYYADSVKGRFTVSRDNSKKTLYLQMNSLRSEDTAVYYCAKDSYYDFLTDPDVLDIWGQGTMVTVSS VL: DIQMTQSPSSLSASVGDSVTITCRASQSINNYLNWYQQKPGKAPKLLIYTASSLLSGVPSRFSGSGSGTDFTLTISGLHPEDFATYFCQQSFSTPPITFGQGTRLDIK
Result: 503000

Task: State its kon: H1H3465P (antibody, human IgG1, V domains shown, human IgG1; also called PSMA-VH-3465 (its HCVR)) VH: QVQLVESGGGVVQPGRSLRLSCAASGFTFITYGMHWVRQAPGKGLEWVAIIYYDESNKYYADSVKGRFTISRDISKNTLYLQMNGLRAEDTAVYYCARAPRVAVEEDYSYYYGMDVWGQGTTVTVSS VL: DIQMTQSPSSLSASVGDRVTITCRASQGIRNDLGWYQQKPGRAPKRLIYGASNLQSGVPSRFSGSGSGTEFTLTISSLQPEDFATYYCLQHNSHPYTFGQGTKLEIK
Result: 267000

Task: Using the record for H1H11836P2 (antibody, human IgG1, V domains shown, human IgG1) VH: QVQLVESGGGVVQPGRSLRLSCAASGFTFRSYGMHWVRQAPGKGLEWVAFISYDESNKHQADSVKGRFTISRDNSKNTLYLQMNSLRAEDTAVYFCAKDQYYDFLTAYDTLDYWGQGTLVTVSS VL: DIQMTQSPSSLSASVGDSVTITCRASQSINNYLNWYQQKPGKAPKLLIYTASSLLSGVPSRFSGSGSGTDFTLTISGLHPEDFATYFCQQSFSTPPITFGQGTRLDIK , state its measured kon.
Result: 327000

Task: Return value of kon for input H1H11803P2 (antibody, human IgG1, V domains shown, human IgG1) VH: QVQLVESGGGVVQPGRSLRLSCAASGFTFSSYGMHWVRQAPGKGLEWVAVIWYDGNNKYYADSVKGRFTISRDNSKKTLYLQMTSLRAEDTAVYYCARDQYYDILTADNTLDYWGQGTLVTVSS VL: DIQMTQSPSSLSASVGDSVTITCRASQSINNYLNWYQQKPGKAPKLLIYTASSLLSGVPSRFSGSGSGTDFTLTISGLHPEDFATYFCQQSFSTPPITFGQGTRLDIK , no commentary.
Result: 457000
